Target: T1, HNRNPH1 qRRM2 (UniProt P31943 103-194)
T1 sequence: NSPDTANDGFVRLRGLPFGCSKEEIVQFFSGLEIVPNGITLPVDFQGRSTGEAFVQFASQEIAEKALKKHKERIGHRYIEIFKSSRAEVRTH
Assay: SPR
value.type: Kd (nM)
Report the value in nM with no unit label.

Field Kd (entry ACCGGGGCAGGGGAAGAGGGGG (structured_RNA) [rG1 5'-biotin (SPR)] ) reads 22
